Reference for the values: patent US10266496B2

Run Description: Pharmacokinetic evaluation in SD rats
Format: in vivo
Measurement Setup: rat, plasma; SD rats, po, 5 mg/kg
Property Measured: Tmax (min)
Your answer is read as min, so omit the unit and give the number.

> print(dat)
                           structure.smiles  recorded.result
1   N#Cc1cc(-c2ccc(C(=O)O)c(O)c2)c2ccccc2c1               25
2  N#Cc1cc(-c2ccc(C(=O)O)c(O)c2)c2oc(Cl)cc2c1               30
3  N#Cc1cc(-c2ccc(C(=O)O)c(O)c2)c2oc(F)cc2c1             79.8

As a next step, examine the compound that follows.
Returns the measured Tmax for the input compound. Input: N#Cc1cc(-c2ccc(C(=O)O)c(O)c2)c2occc2c1 25

---

Run Description: Pharmacokinetic evaluation in SD rats
Type: in vivo
Measurement Setup: rat, plasma; SD rats, po, 5 mg/kg
Property Measured: AUC(0-inf) (ng·h/mL)
Expressed in ng·h/mL, but write only the number.

Example cases with answers are listed next.
> print(dat)
                                   molecule  property.measured  result.unit  recorded.result
1  N#Cc1cc(-c2ccc(C(=O)O)c(O)c2)c2oc(Cl)cc2c1 [Example 40]         AUC(0-inf)      ng·h/mL            28200
2  N#Cc1cc(-c2ccc(C(=O)O)c(O)c2)c2oc(F)cc2c1 [Example 29]         AUC(0-inf)      ng·h/mL            82100

AUC(0-inf) for N#Cc1cc(-c2ccc(C(=O)O)c(O)c2)c2ccccc2c1 [Example 2] ? 8140

# query: AUC(0-inf) of entry N#Cc1cc(-c2ccc(C(=O)O)c(O)c2)c2occc2c1 [Example 1] 45800

---

Run Description: Pharmacokinetic evaluation in SD rats
Format: in vivo
Measurement Setup: rat, plasma; SD rats, iv, 1 mg/kg
Property Measured: half-life (h)
Value expressed in h; do not type the unit.

Which half-life is reported for this compound? N#Cc1cc(-c2ccc(C(=O)O)c(O)c2)c2occc2c1 1.53

Requested field: half-life. Item: N#Cc1cc(-c2ccc(C(=O)O)c(O)c2)c2oc(F)cc2c1 2.76

# half-life lookup, item N#Cc1cc(-c2ccc(C(=O)O)c(O)c2)c2oc(Cl)cc2c1 2.33

Which half-life value belongs to N#Cc1cc(-c2ccc(C(=O)O)c(O)c2)c2ccccc2c1 ? 3.1

---

Run Description: Pharmacokinetic evaluation in SD rats
Type: in vivo
Measurement Setup: rat, plasma; SD rats, po, 5 mg/kg
Property Measured: AUC(0-t)

Which AUC(0-t) value is on record for N#Cc1cc(-c2ccc(C(=O)O)c(O)c2)c2ccccc2c1 ? 8130 ng·h/mL

---

Run Description: Pharmacokinetic evaluation in SD rats
Format: in vivo
Measurement Setup: rat, plasma; SD rats, iv, 1 mg/kg; read-out: Cl
Property Measured: clearance (mL/min/kg)
Please state the figure in mL/min/kg; there is no need to write the unit.

If you can, please state the reported clearance value of N#Cc1cc(-c2ccc(C(=O)O)c(O)c2)c2ccccc2c1 [Example 2] . 7.59

---

Run Description: Pharmacokinetic evaluation in SD rats
Type: in vivo
Measurement Setup: rat, plasma; SD rats, iv, 1 mg/kg; read-out: Cmax
Property Measured: Cmax (ng/mL)
Please give a number only; it is taken to be in ng/mL.

Known Cmax results, listed for orientation:
> print(dat)
                                   compound  property.measured  result.unit  recorded.result
1  N#Cc1cc(-c2ccc(C(=O)O)c(O)c2)c2occc2c1 [Example 1]               Cmax        ng/mL             6030
2  N#Cc1cc(-c2ccc(C(=O)O)c(O)c2)c2oc(F)cc2c1 [Example 29]               Cmax        ng/mL             4540
3  N#Cc1cc(-c2ccc(C(=O)O)c(O)c2)c2oc(Cl)cc2c1 [Example 40]               Cmax        ng/mL             4090

Then this compound:
What does the record list as Cmax for N#Cc1cc(-c2ccc(C(=O)O)c(O)c2)c2ccccc2c1 [Example 2] ? 4380
